From: patent US20210380703A1

# TEST_SYSTEM: T1, biotinylated goat anti-human kappa light chain
# T1 construct: positive control of the ELISA
# PROTOCOL_TEXT: ELISA, positive control; further: test concentration or dose not given here
We begin with a simple list: items and their reported optical density.
The answer is to be given in OD; state only the numeric part.

373_A11 (antibody, V domains shown, Group III) VH: EVQLLESGGGLVQPGGSLRLSCAASGFTFSNYGMNWVRQAPGKGLEWVANINYNGGYTGYADSVKGRFTISRDNSKNTLYLQMNSLRAEDTAVYYCARGANWHDTALDYWGQGTLVTVSS VL: DIQMTQSPSSLSASVGDRVTITCRASQSILTYLNWYQQKPGKAPKLLIYAATSRASGVPSRFSGSGSGTDFTLTISSLQPEDFATYYCQQSYDLPLTFGGGTKVEIK
3.09

Now for another entry.
Request: // optical density lookup, key: 371_C12 (antibody, V domains shown, Group III) VH: EVQLLESGGGLVQPGGSLRLSCAASGFTFSSYSMNWVRQAPGKGLEWVAGINYNSGYKSYADSVKGRFTISRDNSKNTLYLQMNSLRAEDTAVYYCARGANWHDTHLDYWGQGTLVTVSS VL: DIQMTQSPSSLSASVGDRVTITCRASQSIVSYVNWYQQKPGKAPKLLIYAATSRASGVPSRFSGSGSGTDFTLTISSLQPEDFATYYCQQSYDTPLTFGGGTKVEIK
Result: 3.68
